All figures here come from the supplement of paper PMC4466140.

Listed here: items and their measured SPOT peptide array binding signal intensity.
Molecular target: SpSla1-D3
Assay: SPOT peptide array binding signal intensity (averaged, normalized) (arbitrary units (background-subtracted, floor 0; scale differs between SH3 domains)); higher = stronger binding of the SH3 domain to the peptide

Name the reported SPOT peptide array binding signal intensity value associated with the binder VQKRKLPLPGSIASA
≤ 0

What does the data say about its SPOT peptide array binding signal intensity? Entry: RRGPAPPPPPRASRP
≤ 0

What value of measured SPOT peptide array binding signal intensity is listed for VQPTAAPATPPRHIS ?
≤ 0

Looking for the measured SPOT peptide array binding signal intensity of VYTRTAFQIPGDDKI , can you help?
≤ 0

Further cases:
Quick one: SPOT peptide array binding signal intensity for RAPPPVPKKPSSRIA ?
≤ 0

Find the recorded SPOT peptide array binding signal intensity belonging to LKQRFFLMFPKSIIW and report it.
39

Reported SPOT peptide array binding signal intensity, binder FYNRTAFQLPGDARV : ____
0.5
